Biological target: T1, 14-3-3, P63104
T1 chain: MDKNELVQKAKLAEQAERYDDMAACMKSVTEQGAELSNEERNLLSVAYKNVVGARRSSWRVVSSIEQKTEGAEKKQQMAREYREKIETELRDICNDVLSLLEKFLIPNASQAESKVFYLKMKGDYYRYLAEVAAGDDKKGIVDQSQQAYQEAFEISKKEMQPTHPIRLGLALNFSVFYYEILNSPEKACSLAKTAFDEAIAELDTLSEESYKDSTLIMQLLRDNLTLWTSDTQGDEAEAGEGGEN
Test: GST pull-down, Western blot densitometry
Conditions: chain shown with the change; 293T cell extracts, glutathione beads; two blots quantified; parent: est. 1.5; read off a plot
Value type: response (IB:14-3-3/total 14-3-3)

>  <Binder>
GST-BAD wild type, full length (pEBG-BAD), Q61337 S111A (protein) MGTPKQPSLAPAHALGLRKSDPGIRSLGSDAGGRRWRPAAQSMFQIPEFEPSEQEDASATDRGLGPSLTEDQPGPYLAPGLLGSNIHQQGRAATNSHHGGAGAMETRSRHASYPAGTEEDEGMEEELSPFRGRSRSAPPNLWAAQRYGRELRRMSDEFEGSFKGLPRPKSAGTATQMRQSAGWTRIIQSWWDRNLGKGGSTPSQ

>  <Value type>
response (IB:14-3-3/total 14-3-3)

>  <Obs value>
1.7

$$$$
>  <Binder>
GST-BAD wild type, full length (pEBG-BAD), Q61337 S112A (protein) MGTPKQPSLAPAHALGLRKSDPGIRSLGSDAGGRRWRPAAQSMFQIPEFEPSEQEDASATDRGLGPSLTEDQPGPYLAPGLLGSNIHQQGRAATNSHHGGAGAMETRSRHSAYPAGTEEDEGMEEELSPFRGRSRSAPPNLWAAQRYGRELRRMSDEFEGSFKGLPRPKSAGTATQMRQSAGWTRIIQSWWDRNLGKGGSTPSQ

>  <Value type>
response (IB:14-3-3/total 14-3-3)

>  <Obs value>
1.8

$$$$
>  <Binder>
GST-BAD wild type, full length (pEBG-BAD), Q61337 S111A; S112A; S136A (protein) MGTPKQPSLAPAHALGLRKSDPGIRSLGSDAGGRRWRPAAQSMFQIPEFEPSEQEDASATDRGLGPSLTEDQPGPYLAPGLLGSNIHQQGRAATNSHHGGAGAMETRSRHAAYPAGTEEDEGMEEELSPFRGRSRAAPPNLWAAQRYGRELRRMSDEFEGSFKGLPRPKSAGTATQMRQSAGWTRIIQSWWDRNLGKGGSTPSQ

>  <Value type>
response (IB:14-3-3/total 14-3-3)

>  <Obs value>
0.22

$$$$
>  <Binder>
GST-BAD wild type, full length (pEBG-BAD), Q61337 S112A; S136A (protein) MGTPKQPSLAPAHALGLRKSDPGIRSLGSDAGGRRWRPAAQSMFQIPEFEPSEQEDASATDRGLGPSLTEDQPGPYLAPGLLGSNIHQQGRAATNSHHGGAGAMETRSRHSAYPAGTEEDEGMEEELSPFRGRSRAAPPNLWAAQRYGRELRRMSDEFEGSFKGLPRPKSAGTATQMRQSAGWTRIIQSWWDRNLGKGGSTPSQ

>  <Value type>
response (IB:14-3-3/total 14-3-3)

>  <Obs value>
0.19

$$$$
>  <Binder>
GST-BAD wild type, full length (pEBG-BAD), Q61337 S111A; S112A (protein) MGTPKQPSLAPAHALGLRKSDPGIRSLGSDAGGRRWRPAAQSMFQIPEFEPSEQEDASATDRGLGPSLTEDQPGPYLAPGLLGSNIHQQGRAATNSHHGGAGAMETRSRHAAYPAGTEEDEGMEEELSPFRGRSRSAPPNLWAAQRYGRELRRMSDEFEGSFKGLPRPKSAGTATQMRQSAGWTRIIQSWWDRNLGKGGSTPSQ

>  <Value type>
response (IB:14-3-3/total 14-3-3)

>  <Obs value>
1.9

$$$$
>  <Binder>
GST-BAD wild type, full length (pEBG-BAD), Q61337 S136A (protein) MGTPKQPSLAPAHALGLRKSDPGIRSLGSDAGGRRWRPAAQSMFQIPEFEPSEQEDASATDRGLGPSLTEDQPGPYLAPGLLGSNIHQQGRAATNSHHGGAGAMETRSRHSSYPAGTEEDEGMEEELSPFRGRSRAAPPNLWAAQRYGRELRRMSDEFEGSFKGLPRPKSAGTATQMRQSAGWTRIIQSWWDRNLGKGGSTPSQ

>  <Value type>
response (IB:14-3-3/total 14-3-3)

>  <Obs value>
0.17

$$$$
>  <Binder>
GST-BAD wild type, full length (pEBG-BAD), Q61337 S111A; S136A (protein) MGTPKQPSLAPAHALGLRKSDPGIRSLGSDAGGRRWRPAAQSMFQIPEFEPSEQEDASATDRGLGPSLTEDQPGPYLAPGLLGSNIHQQGRAATNSHHGGAGAMETRSRHASYPAGTEEDEGMEEELSPFRGRSRAAPPNLWAAQRYGRELRRMSDEFEGSFKGLPRPKSAGTATQMRQSAGWTRIIQSWWDRNLGKGGSTPSQ

>  <Value type>
response (IB:14-3-3/total 14-3-3)

>  <Obs value>
0.2

$$$$
